- ASSAYED TARGET: 3',5'-cyclic-AMP phosphodiesterase 4B (Homo sapiens) (UniProt Q07343)
- Sequence (Q07343 whole entry, looked up): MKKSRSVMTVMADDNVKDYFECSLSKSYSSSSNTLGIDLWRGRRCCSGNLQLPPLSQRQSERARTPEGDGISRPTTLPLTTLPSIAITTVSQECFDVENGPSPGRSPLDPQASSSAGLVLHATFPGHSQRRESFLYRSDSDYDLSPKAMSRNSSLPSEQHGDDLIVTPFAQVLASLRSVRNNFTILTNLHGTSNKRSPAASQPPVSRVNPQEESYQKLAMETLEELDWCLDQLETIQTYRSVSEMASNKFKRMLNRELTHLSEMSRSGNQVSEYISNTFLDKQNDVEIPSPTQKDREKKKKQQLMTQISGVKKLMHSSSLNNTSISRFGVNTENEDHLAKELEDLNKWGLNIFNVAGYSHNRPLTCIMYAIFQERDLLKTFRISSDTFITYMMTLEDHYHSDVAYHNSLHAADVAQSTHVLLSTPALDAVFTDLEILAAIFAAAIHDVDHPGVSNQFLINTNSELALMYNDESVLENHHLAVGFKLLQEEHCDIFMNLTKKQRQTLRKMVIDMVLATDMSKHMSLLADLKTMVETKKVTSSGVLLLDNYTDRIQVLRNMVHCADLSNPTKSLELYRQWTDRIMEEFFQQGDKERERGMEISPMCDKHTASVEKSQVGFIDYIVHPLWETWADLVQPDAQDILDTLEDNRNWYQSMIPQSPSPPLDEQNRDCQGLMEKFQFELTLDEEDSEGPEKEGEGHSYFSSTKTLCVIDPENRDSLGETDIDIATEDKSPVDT
- ASSAY SUMMARY: qHTS Assay for Inhibitors of PDE-IV (AID 607); note: % of control where 0% means no effect
- CONDITION NOTES: HEK293 ACTOne CNG channel cells, membrane potential fluorescence; series mostly up to 22.9 µM
Records with an inconclusive call do not appear. The source made the active and inactive calls. Calls come from the whole dose curve; as a rule, active = well fitted activation curve with a large enough effect in the main read-out, with a control signal flat (not every such curve was filed as active); inconclusive = small, poorly fitted or top-dose-only effect, or effect the other way, or a change in a side signal; inactive = flat fitted curve, though single readings scatter.
QUANTITY NAME: outcome

These solved cases illustrate the format of a correct answer.
COc1ccc(-c2ccc(N)[n+](CCCC(=O)O)n2)cc1 : inactive
O=c1[nH]c2ccccc2c2ccccc12 : inactive
CN(C)S(=O)(=O)c1ccc2c(c1)/C(=C/c1cc3c([nH]1)CCCC3)C(=O)N2 : inactive
COc1ccccc1N1CCN(CCN(C(=O)c2ccc(F)cc2)c2ccccn2)CC1 : inactive
NC(N)=NC(N)=Nc1ccccc1 : inactive

What the record says about N=C(N)c1ccc(N)cc1 : outcome is inactive

---

- ASSAY SUMMARY: Nrf2 qHTS screen for inhibitors: Validation (AID 493153)
- CONDITION NOTES: A549 ARE-Fluc reporter, 18-24 h; measured here: cytotoxicity max response
Records with an inconclusive call do not appear.
Reported viability change values follow for various compounds
Field: numeric (%). Do not append units.

NC1(C(=O)O)CCc2cc(C(=O)O)ccc21 (configuration not stated) : -0.824
Nn1nnc2ccccc21 : -0.567
CC(=O)SC1CC2=CC(=O)CC[C@]2(C)C2CC[C@@]3(C)C(CC[C@@]34CCC(=O)O4)C12 (some centres not stated) : -9.73
N[C@H](C(=O)O)[C@H](O)C(=O)O : 7.86
C=CCN1CCc2c(cc(O)c(O)c2Br)[C@@H](c2ccccc2)C1 : -6.77
CCN1C(=O)C=CC1=O : 1.81
NC/C=C\C(=O)O : -0.476
OC1(c2ccc(Cl)cc2)CCN(Cc2c[nH]c3ccccc23)CC1 : -2.32

What the record says about CCc1ccc2c(-c3cccc(Cl)c3)nc(=O)n(CC)c2n1 : viability change is 1.57

What the record says about COc1ccccc1N1CCN(CCCCNC(=O)c2ccc3ccccc3c2)CC1 : viability change is 4.82

What the record says about CC(C)NC[C@H](O)COc1ccc(CC(N)=O)cc1 : viability change is -0.176

What the record says about CCN(CC)CCCCCCCCOC(=O)c1cc(OC)c(OC)c(OC)c1 : viability change is 6.3

---

- ASSAYED TARGET: Tyrosine-protein phosphatase non-receptor type substrate 1 (Homo sapiens) + Leukocyte surface antigen CD47 (Homo sapiens) (UniProt P78324+Q08722)
- Sequence (P78324 whole entry, looked up): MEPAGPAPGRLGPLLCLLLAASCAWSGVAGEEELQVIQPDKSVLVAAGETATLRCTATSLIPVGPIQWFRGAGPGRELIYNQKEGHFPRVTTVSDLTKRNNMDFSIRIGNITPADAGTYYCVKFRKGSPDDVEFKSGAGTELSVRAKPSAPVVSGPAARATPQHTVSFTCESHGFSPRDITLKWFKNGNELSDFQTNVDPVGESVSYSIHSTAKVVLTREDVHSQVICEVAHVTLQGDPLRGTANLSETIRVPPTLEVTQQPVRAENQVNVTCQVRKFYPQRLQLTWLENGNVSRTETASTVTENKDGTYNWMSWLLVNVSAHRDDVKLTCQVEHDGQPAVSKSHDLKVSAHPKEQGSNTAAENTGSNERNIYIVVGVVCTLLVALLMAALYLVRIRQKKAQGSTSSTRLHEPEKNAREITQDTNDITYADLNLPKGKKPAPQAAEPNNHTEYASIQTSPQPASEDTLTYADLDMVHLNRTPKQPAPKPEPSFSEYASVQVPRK
- Sequence (Q08722 whole entry, looked up): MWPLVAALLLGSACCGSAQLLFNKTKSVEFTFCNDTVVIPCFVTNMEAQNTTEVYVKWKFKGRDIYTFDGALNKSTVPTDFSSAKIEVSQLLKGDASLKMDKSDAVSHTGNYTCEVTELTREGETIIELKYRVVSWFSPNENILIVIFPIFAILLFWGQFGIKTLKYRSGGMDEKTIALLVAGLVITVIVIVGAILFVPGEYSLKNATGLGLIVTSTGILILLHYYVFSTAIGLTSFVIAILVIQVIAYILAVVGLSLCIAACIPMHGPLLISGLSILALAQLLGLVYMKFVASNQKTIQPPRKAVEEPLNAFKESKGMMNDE
- ASSAY SUMMARY: CD47-SIRPalpha protein protein interaction - Alpha assay qHTS validation (AID 1347059);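 note: bead proximity luminescence from CD47 binding SIRPalpha after compound preincubation with SIRPalpha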; note: potency is the fitted concentration of half-maximal effect
- CONDITION NOTES: AlphaScreen CD47-His/biotin-SIRPalpha binding, LOPAC; series mostly up to 38.3 µM
Results filed as inconclusive are left out. The source made the active and inactive calls. Calls come from the whole dose curve; as a rule, active = well fitted inhibition curve with a large enough effect; inconclusive = small, poorly fitted or top-dose-only effect; inactive = flat fitted curve, though single readings scatter.
QUANTITY NAME: Potency

These solved cases illustrate the format of a correct answer.
CCCCCCCCCCCCCCC[C@H](O)[C@H](N)CO : inactive
NC1CCN(O)C1=O (configuration not stated) : inactive
Cc1ccccc1/C=C/C1=NCCN1 : inactive
CNCCc1cnc(CCC(c2ccccc2)c2ccccc2)[nH]1 : inactive
C=CCn1c(=O)c2c(nc(-c3ccc(S(=O)(=O)O)cc3)n2C)n(C)c1=O : inactive
Fc1ccc(CN(C2=NCCN2)c2c(Cl)cccc2Cl)cc1 : inactive
CC[n+]1c(/C=C/C=C2/N(C)c3ccccc3C2(C)C)sc2ccccc21 : 7.36 µM (active)
NC1(C(=O)O)CC1 : inactive
Cc1ccc([N+](=O)[O-])cc1S(=O)(=O)N(C)C : inactive
CNc1cc(NS(=O)(=O)c2ccc(N)cc2)nc(NC)n1 : inactive

What the record says about C=CCN1CCc2cc(O)c(O)cc2C(c2ccccc2)C1 (configuration not stated) : Potency is inactive

What the record says about O[Si](CCCN1CCCCC1)(c1ccc(F)cc1)C1CCCCC1 (configuration not stated) : Potency is inactive

What the record says about NC1(C(=O)O)CCc2cc(C(=O)O)ccc21 (configuration not stated) : Potency is inactive

What the record says about CCCCCCCC/C=C\CCCCCCCC(=O)NCCc1ccc(O)c(O)c1 : Potency is inactive

What the record says about O=[N+]([O-])c1cccc2c(Br)[nH]nc12 : Potency is inactive

What the record says about CCCOC(=O)c1c(-c2ccccc2)nc(CC)c(C(=O)SCC)c1CCC : Potency is inactive

What the record says about NC(N)=[N+]1CCc2ccccc2C1 : Potency is inactive

What the record says about NS(=O)(=O)c1cccc2c1c([N+](=O)[O-])cc1nc(O)c(O)nc12 : Potency is inactive

What the record says about C[N+](C)(C)CC=O : Potency is inactive

What the record says about Nc1ncnc2c1ncn2C1CCCC1 : Potency is inactive
